The origin of these recorded values is paper PMC3733550.

- assay target: ABCG2 (Homo sapiens, UniProt Q9UNQ0)
- Sequence (Q9UNQ0 whole entry): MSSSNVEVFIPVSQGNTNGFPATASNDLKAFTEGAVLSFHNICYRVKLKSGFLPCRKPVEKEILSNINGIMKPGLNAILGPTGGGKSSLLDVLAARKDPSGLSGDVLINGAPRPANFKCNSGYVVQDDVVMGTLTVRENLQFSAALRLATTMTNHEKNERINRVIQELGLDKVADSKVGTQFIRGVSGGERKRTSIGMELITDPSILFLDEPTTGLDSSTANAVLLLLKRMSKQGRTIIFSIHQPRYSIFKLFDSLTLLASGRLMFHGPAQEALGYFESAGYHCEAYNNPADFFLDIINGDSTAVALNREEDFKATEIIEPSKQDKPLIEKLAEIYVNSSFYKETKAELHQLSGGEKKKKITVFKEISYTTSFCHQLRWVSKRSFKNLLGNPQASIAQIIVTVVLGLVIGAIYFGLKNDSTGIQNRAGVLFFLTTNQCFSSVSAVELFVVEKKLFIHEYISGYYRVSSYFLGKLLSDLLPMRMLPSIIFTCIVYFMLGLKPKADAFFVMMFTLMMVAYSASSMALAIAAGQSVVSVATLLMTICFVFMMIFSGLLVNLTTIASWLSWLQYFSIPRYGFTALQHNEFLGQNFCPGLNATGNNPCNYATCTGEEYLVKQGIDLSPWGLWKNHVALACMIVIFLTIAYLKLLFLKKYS
- assay procedure: ABCG2 ATPase assay
- Assay type: biochemical
reported property: EC50

smiles code	assay target	result
O=C1/C(=C/c2ccccc2)Oc2ccccc21	ABCG2 (Homo sapiens, UniProt Q9UNQ0)	190 nM

###

- Tested on: MDA-MB-231/V cells
- assay procedure: Growth inhibition by mitoxantrone in parental MDA-MB-231/V cells
- Type: cell-based
- test conditions: Homo sapiens, MDA-MB-231, 72 h, read-out: IC50 value of MX in MDA-MB-231/V cells
pIC50: −log10 of the molar value.

smiles code	assay target	pIC50
O=C1c2c(O)ccc(O)c2C(=O)c2c(NCCNCCO)ccc(NCCNCCO)c21	MDA-MB-231/V cells	7.15
